- PROCEDURE DETAILS: physchem
- COND: pH 5.5, fessif, thermodynamic from solid, 24 hr Equilibrium Solubility
EXPERIMENTAL ENDPOINT: solubility thermodynamic at 24 h

Can you share its solubility thermodynamic at 24 h? I mean this molecule: CO[C@H]1C[C@H]2CC[C@@H](C1)N2c1nc(-c2c(C)ccc3[nH]nc(C)c23)nc2c1CN(c1cc(C(C)C)ccc1C)CC2
< 0.5 µg/mL

----------
Consider the following molecules; for each one, report its IC50.
- Test system: CD11b
- PROCEDURE DETAILS: Human whole blood CD11b up-regulation assay
- Assay type: cell-based
- COND: Homo sapiens, 2 nM human C5a, CD15+ granulocytes, read-out: hCD11b IC50
Answers are plain numbers, in nM.

See these solved cases before continuing.
Can you share its IC50? I mean this molecule: CO[C@@H]1CCN(c2nc(-c3c(C)ccc4[nH]nc(C)c34)nc3c2CN(c2cc(C(C)C)nn2C)CC3)[C@H](C)C1 [Example 23-G]
25

Can you share its IC50? I mean this molecule: [2H]C1([2H])c2c(C)cc(-c3cccc4[nH]cc(C)c34)nc2CCN1c1c(C)cccc1C [Example 44-E]
188

Can you share its IC50? I mean this molecule: Cc1ccc(C(C)C)cc1N1CCc2nc(-c3cccc4[nH]cc(C)c34)nc(N3CCN(CC(N)=O)C[C@H]3C)c2C1 [Example 52-C]
178

Others:
Can you share its IC50? I mean this molecule: CO[C@H]1C[C@H]2CC[C@@H](C1)N2c1nc(-c2c(C)ccc3[nH]nc(C)c23)nc2c1CN(c1cc(C(C)C)ccc1C)CC2 [Example 19-F]
13

----------
Consider the following compounds; for each one, report its IC50.
- TEST SYSTEM: human C5aR (Homo sapiens (Human), UniProt P21730)
- Sequence (P21730 whole entry): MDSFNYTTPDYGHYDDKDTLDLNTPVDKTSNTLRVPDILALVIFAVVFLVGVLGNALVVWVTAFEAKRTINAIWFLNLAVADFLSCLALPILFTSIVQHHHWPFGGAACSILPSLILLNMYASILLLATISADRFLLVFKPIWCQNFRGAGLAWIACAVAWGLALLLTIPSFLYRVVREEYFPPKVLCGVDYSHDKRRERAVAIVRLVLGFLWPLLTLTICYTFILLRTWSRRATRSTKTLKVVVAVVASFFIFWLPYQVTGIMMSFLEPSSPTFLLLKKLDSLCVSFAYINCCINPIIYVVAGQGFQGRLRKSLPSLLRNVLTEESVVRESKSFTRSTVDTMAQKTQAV
- PROCEDURE DETAILS: FLIPR assay: inhibition of C5a-mediated calcium mobilization
- COND: stable cell line over expressing human C5aR & Gα15, human C5a at EC50 (0.1-0.25 nM)
Answers are plain numbers, in nM.

Hey, can you go through the list below and give me IC50 for every item?
1. CO[C@@H]1CCN(c2nc(-c3c(C)ccc4[nH]nc(C)c34)nc3c2CN(c2cc(C(C)C)nn2C)CC3)[C@H](C)C1
2. Cc1ccc(C(C)C)cc1N1CCc2nc(-c3cccc4[nH]nc(C)c34)cc(C)c2C1

2
21

Hey, can you go through the list below and give me IC50 for every item?
1. COC1CCN(c2nc(-c3cccc4[nH]cc(C)c34)nc3c2CN(c2cc(C(C)C)ccc2C)CC3)[C@H](C)C1 (stereo in doubt)
2. Cc1ccc(C(C)C)cc1N1CCc2nc(-c3c(C)cccc3C)nc(N3C[C@H](C)N(CC(N)=O)C[C@H]3C)c2C1
3. CO[C@H]1CN(c2nc(-c3c(C)ccc4[nH]nc(C)c34)nc3c2CN(c2cc(C(C)C)ccc2C)CC3)C[C@@H]1N(C)C (single isomer, unassigned)
4. CO[C@@H]1CCN(c2nc(-c3c(C)cncc3C)nc3c2CN(c2cc(C(C)C)ccc2C)CC3)CC1(C)C

[10, 3, 4, 56]

----------
- Tested on: CD11b
- PROCEDURE DETAILS: Human whole blood CD11b up-regulation assay
- Type: cell-based
- COND: Homo sapiens, 2 nM human C5a, CD15+ granulocytes, read-out: hCD11b IC50
EXPERIMENTAL ENDPOINT: IC50
Kindly write the number and append the unit.

See these solved cases before continuing.
Can you share its IC50? I mean this compound: Cc1ccc2[nH]nc(C)c2c1-c1nc2c(c(N3CC[C@@H](N(C)C)C3)n1)CN(c1c(Cl)c(C3CC3)nn1C)CC2
69 nM

Can you share its IC50? I mean this compound: CO[C@@H]1CCN(c2nc(-c3c(C)cccc3C#N)nc3c2CN(c2cc(C(C)C)ccc2C)CC3)C[C@H]1C
30 nM

Can you share its IC50? I mean this compound: CO[C@H]1C[C@H]2CC[C@@H](C1)N2c1nc(-c2cccc3[nH]cc(C)c23)nc2c1CN(c1cc(C(C)C)ccc1C)CC2
67 nM

Can you share its IC50? I mean this compound: [2H]C1([2H])c2c(C)cc(-c3c(C)ccc4[nH]ncc34)nc2CCN1c1cc(OC)ccc1C
583 nM

Can you share its IC50? I mean this compound: CCn1nc(C2CC2)c(F)c1N1CCc2nc(-c3c(C)ccc4[nH]nc(C)c34)nc(N3CC[C@@H](OC)C(C)(C)C3)c2C1
10 nM

Can you share its IC50? I mean this compound: CO[C@@H]1CCN(c2nc(-c3c(C)cccc3C)nc3c2CN(c2cc(C(C)C)nn2C)CC3)[C@H](C)C1
95 nM

Note: attention shifts to another entry.
Can you share its IC50? I mean this compound: CCc1cccc(CC)c1-c1cc(C)c2c(n1)CCN(c1cc(C3CC3)ccc1C)C2
69 nM
